Origin of measurements: PubChem BioAssay (NCATS)

# Assay protocol: qHTS profiling for inhibitors of Plasmodium falciparum (HB3) proliferation (AID 743324);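 note: 100% = DMSO vehicle wells and 0% = artemisinin-treated control wells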
# Particulars: Plasmodium falciparum HB3 blood-stage proliferation; at 28.7 µM (top of the series)
# key: entry, value: remaining proliferation (% of control), lower = more inhibition
Assay readout: remaining proliferation (% of control), lower = more inhibition (%)

Cc1ccc(C(=O)Nc2ccc(CN3CCN(C)CC3)c(C(F)(F)F)c2)cc1C#Cc1cnc2cccnn12 | -1.05
CCCCCN(CCC12CC3CC(CC(C3)C1)C2)C(=O)NCCCc1ccncc1 | 7.47
Cc1cccc(C=NNc2cc(N3CCOCC3)nc(OCCc3ccccn3)n2)c1 | 1.85
Cc1cn2c(-c3cn[nH]c3)cnc2c(Nc2ccc(C(=O)N3CCNCC3)cc2F)n1 | 11.9
CC(C)(C)c1cc(NC(=O)Nc2ccc(-c3cn4c(n3)sc3cc(OCCN5CCOCC5)ccc34)cc2)no1 | -0.226
CC(NCc1ccc2c(c1)nc(NC(=O)c1ccc(-c3cn[nH]c3)s1)n2CC(C)(C)O)C(C)(C)C (centres undefined) | -1
COc1ccc(CC2SC(=O)NC2=O)cc1C(=O)NCc1ccc(C(F)(F)F)cc1 (centres undefined) | 54.2
C[C@]1(CO)CN(c2cc(C(=O)Nc3ccc4c(c3)-c3c(c(C(N)=O)nn3-c3ccc(F)cc3)CC4)c(Cl)cn2)C[C@@]1(C)CO | 6.49
C=C1C(=CC=C2CCCC3(C)[C@@H]([C@H](C)C=CC=CC(O)(CC)CC)CC[C@@H]23)C[C@@H](O)C[C@@H]1O (some centres undefined) | 20.6
O=C(O)c1ccc2cc(-c3ccc(O)c(C45CC6CC(CC(C6)C4)C5)c3)ccc2c1 | -1.12
C[C@@H]1CN(CC(=O)Nc2ccc3c(c2)Cc2cccc(-c4cc(=O)cc(N5CCOCC5)o4)c2S3)C[C@H](C)O1 | -0.663
COc1cc2c(Nc3ccc(NC(=O)c4ccccc4)cc3)ncnc2cc1OCCCN1CCOCC1 | 3.78
CCC[C@H](NC(=O)C(C#N)=Cc1cccc(Br)n1)c1ccccc1 | 14.8
CC[C@H](CO)Nc1nc(NCc2ccccc2)c2ncn(C(C)C)c2n1 | 19.5
Clc1ccc2ncc(-c3cccc(NC4CNC4)n3)n2c1 | 6.95
CNc1nccc(-c2cccnc2Oc2cc(C(=O)Nc3cccc(C(F)(F)F)c3)ccc2C)n1 | 3.23
Nc1ccc(C(=O)c2cc3c(ccc4ccccc43)[nH]2)cc1 | 99.1
CNC(=O)c1cc(Oc2ccc(NC(=O)Nc3cc(C(C)(C)C)nn3-c3ccc4ncccc4c3)c(F)c2)ccn1 | 24.1
CCOc1cc2ncc(C#N)c(Nc3ccc(F)c(Cl)c3)c2cc1NC(=O)C=CCN(C)C | 0.199

====

# Assay protocol: qHTS of pediatric cancer cell lines to identify multiple opportunities for drug repurposing: Primary screen for Rh41 cells (AID 1347108); note: nearly all actives have a fitted effect of over 70% in size; note: potency is the fitted concentration of half-maximal effect
# Particulars: Rh41 rhabdomyosarcoma viability, CellTiter-Glo luminescence, 48 h; series mostly up to 46 µM
Results filed as inconclusive are left out. The source made the active and inactive calls. The call rests on the fitted dose curve; in most records, active means well fitted cell-killing curve with a large enough effect; inconclusive means small, poorly fitted or top-dose-only effect; inactive means no such curve, though single readings can be large or run the other way.
Assay readout: Potency

C[C@@H](Oc1cc(-c2cnn(C3CCNCC3)c2)cnc1N)c1c(Cl)ccc(F)c1Cl | 18700 nM (active)
Cc1[nH]c2ccccc2c1CCNCc1ccc(C=CC(=O)NO)cc1 | 235 nM (active)
Nc1ccccc1NC(=O)c1ccc(CNc2nccc(-c3cccnc3)n2)cc1 | 1180 nM (active)
CCOc1ccccc1OCCNC(C)Cc1ccc(OC)c(S(N)(=O)=O)c1 (stereo not given) | inactive
CC(C)Nc1cc(C(F)(F)F)cc2nc(NC(=O)c3cccnc3)nn12 | inactive
CCc1c2c(nc3ccc(O)cc13)-c1cc3c(c(=O)n1C2)COC(=O)[C@]3(O)CC | 235 nM (active)
CCc1cc2c(cc1N1CCC(N3CCOCC3)CC1)C(C)(C)c1[nH]c3cc(C#N)ccc3c1C2=O | inactive
Nc1nc(Nc2ccc(S(N)(=O)=O)cc2)nn1C(=O)c1c(F)cccc1F | 14800 nM (active)
COc1cc(C(=O)N2CCC(N3CCN(C)CC3)CC2)ccc1Nc1ncc2c(n1)N(C)c1ccccc1C(=O)N2C | 9350 nM (active)
Nc1ncnc2c1c(-c1cnc3[nH]ccc3c1)nn2C1CCCC1 | 935 nM (active)

====

# Assay protocol: High-throughput drug toxicity screening in the BPDCN cell line Cal-1 (AID 1224825);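 note: cells exposed to compounds for 48 h; 100% = DMSO and 0% = bortezomib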
# Particulars: Cal-1 BPDCN cell viability, qHTS; at 45.8 µM (top of the series) unless noted
Lab note - cut at 5% for viability (% of control): criterion met if strictly below, criterion not met if not.

CC(C)c1cc(C(=O)N2Cc3ccc(CN4CCN(C)CC4)cc3C2)c(O)cc1O | criterion not met
c1nc2nc(Nc3ccc(N4CCOCC4)cc3)nc(NC3CCCCC3)c2[nH]1 | criterion not met
COCCn1c2c([n+](Cc3cnccn3)c1C)C(=O)c1ccccc1C2=O | criterion met
Cc1ccc2nc(NC(=O)CSc3nc4c(c(=O)n3-c3ccccc3)SCC4)sc2c1 | criterion not met
O=c1[nH]nc(Sc2ncc([N+](=O)[O-])s2)n1-c1ccc2c(c1)OCCO2 | criterion met
C=CC(=O)Nc1cccc(Oc2nc(Nc3ccc(N4CCN(C)CC4)cc3OC)ncc2Cl)c1 | criterion not met
COc1cc(C(=O)NS(=O)(=O)c2ccccc2C)ccc1Cc1cn(C)c2ccc(NC(=O)OC3CCCC3)cc12 | criterion met
C=CC(=O)Nc1cc2c(Nc3ccc(F)c(Cl)c3)ncnc2cc1C#CC(C)(C)N1CCN(C)CC1 | criterion met
CNC(=O)c1ccc(-c2cnc3ncc(Cc4ccc5ncccc5c4)n3n2)cc1F | criterion not met
CNC(=O)c1nn(C)c2c1C(C)(C)Cc1cnc(Nc3ccc(N4CCN(C)CC4)cc3)nc1-2 | criterion met
COc1c(N2C[C@@H]3CCCN[C@H]3C2)c(F)cc2c(=O)c(C(=O)O)cn(C3CC3)c12 | criterion not met
CC(C)(O)c1cc2nc(-c3cnc(N)nc3)nc(N3CCOCC3)c2s1 | criterion not met
Clc1cccc(-n2nnnc2NCc2ccccc2Oc2ccccn2)c1Cl | criterion not met
CC=C1NC(=O)[C@H]2CSSCCC=C[C@H](CC(=O)N[C@H](C(C)C)C(=O)N2)OC(=O)[C@H](C(C)C)NC1=O | criterion met
COC(=O)C1=C(C)NC(C)=C(C(=O)OCCN2CCN(C(c3ccccc3)c3ccccc3)CC2)C1c1cccc([N+](=O)[O-])c1 (centres undefined) | criterion not met
C=CC(=O)Nc1cc2c(Nc3ccc(F)c(Cl)c3)ncnc2cc1OCCCN1CCOCC1 | criterion not met
Clc1ccc2ncc(-c3cccc(NC4CNC4)n3)n2c1 | criterion met

====

# Assay protocol: qHTS of pediatric cancer cell lines to identify multiple opportunities for drug repurposing: Primary screen for DAOY cells (AID 1347090); note: nearly all actives have a fitted effect of over 55% in size
# Particulars: DAOY medulloblastoma viability, CellTiter-Glo luminescence, 48 h; series mostly up to 46 µM
Inconclusive results are not listed. Calls of active or inactive are those of the source. The call rests on the fitted dose curve; in most records, active means well fitted cell-killing curve with a large enough effect; inconclusive means small, poorly fitted or top-dose-only effect; inactive means flat fitted curve, though single readings scatter.
Outcomes: active, inactive

CCN(CC)CCNC(=O)c1ccc2nc(-c3ccccc3)c(-c3ccc(CN4CCC(n5c(=O)[nH]c6ccccc65)CC4)cc3)nc2c1 | active
Nc1ccn([C@@H]2CS[C@H](CO)O2)c(=O)n1 | inactive
CC(C)(O)c1cc2nc(-c3cnc(N)nc3)nc(N3CCOCC3)c2s1 | active
NC(=O)c1cccc2cn(-c3ccc([C@@H]4CCCNC4)cc3)nc12 | inactive
C=CCn1c(=O)c2cnc(Nc3ccc(N4CCN(C)CC4)cc3)nc2n1-c1cccc(C(C)(C)O)n1 | active
O=C(Nc1cc(C(F)(F)F)cc(C(F)(F)F)c1)c1cc(Cl)ccc1O | active
Cc1cn(-c2cc(NC(=O)c3ccc(C)c(Nc4nccc(-c5cccnc5)n4)c3)cc(C(F)(F)F)c2)cn1 | inactive
Cc1c(NC(=O)OC[C@@H]2COCCN2)cn2ncnc(Nc3ccc4c(cnn4Cc4cccc(F)c4)c3)c12 | active
Cc1ccc(NC(=O)C2(c3ccc4c(c3)OC(F)(F)O4)CC2)nc1-c1cccc(C(=O)O)c1 | active

====

# Assay protocol: S16 Schwann cell PMP22 intronic element firefly luciferase assay (AID 624032); note: nearly all actives have a fitted effect of over 30% in size
# Particulars: S16 rat Schwann cells, PMP22 element FLuc, 24 h; series mostly up to 57.5 µM
# Experimental: Charcot-Marie-Tooth-Association [CMTA] National Center for Advancing Translational Sciences [NCATS] […] The FLuc-expressing S16 cells were seeded in white solid 1536-well plates at between 500-750 cells/4uL in DMEM medium containing 10% FBS, w/o phenol red. […] Luminescence was measured on a ViewLux plate reader (Perkin Elmer). The % activity was determined by normalizing to the average readings of PTC124 (a positive control) - treated cells relative to DMSO-treated cells (0% Activity). […]
Inconclusive results are not listed. Active and inactive are the calls of the source. The call rests on the fitted dose curve; in most records, active means well fitted inhibition curve with a large enough effect; inconclusive means small, poorly fitted or top-dose-only effect; inactive means no such curve, though single readings can be large or run the other way.
Outcomes: true (active), false (inactive)

CCC1=C[C@@H]2CN(C1)Cc1c([nH]c3ccccc13)[C@@](C(=O)OC)(c1cc3c(cc1OC)N(C)[C@@H]1[C@@](O)(C(=O)OC)[C@H](OC(C)=O)[C@]4(CC)C=CCN5CC[C@]31[C@@H]54)C2 | true
CC=CC1=C(C(=O)O)N2C(=O)[C@H](NC(=O)[C@H](N)c3ccc(O)cc3)[C@@H]2SC1 | false
CC1(C)O[C@@H]2C[C@@H]3[C@H]4C[C@@H](F)C5=CC(=O)C=C[C@]5(C)[C@@]4(F)[C@@H](O)C[C@]3(C)[C@]2(C(=O)CO)O1 | false
COc1c(N2C[C@@H]3CCCN[C@H]3C2)c(F)cc2c(=O)c(C(=O)O)cn(C3CC3)c12 | false
Nc1ccc(S(=O)(=O)Nc2ncccn2)cc1 | true
Nc1ccn([C@@H]2CS[C@H](CO)O2)c(=O)n1 | false
CC(C)(C)NC(=O)[C@H]1CN(Cc2cccnc2)CCN1C[C@@H](O)C[C@@H](Cc1ccccc1)C(=O)N[C@H]1c2ccccc2C[C@H]1O | true
O=C(O)CO.[NH2-].[NH2-].[Pt+2] | false
COc1cc(C(=O)NS(=O)(=O)c2ccccc2C)ccc1Cc1cn(C)c2ccc(NC(=O)OC3CCCC3)cc12 | false
C[C@H]1C[C@@H]2[C@@H]([C@@H](O)C[C@@]3(C)[C@H]2CC[C@]3(O)C(=O)CO)[C@@]2(C)C=CC(=O)C=C12 | false
